- Test system: liver damage induced by carbon tetrachloride
- assay.text: Protective (Controlling) effect on liver damage induced by carbon tetrachloride
- Type: in vivo, mice (dd strain)
- assay.context: 250 mg/kg p.o., CCl4 0.05 ml/kg after 6 h, 24 h; CCl4 alone >2,100
measured.property: p-GPT (Karmen units)
Unit Karmen units implied. Number only.

Solved cases (3 shown):
[
  {
    "molecule": "CC(=O)C(C(=O)OC(C)C)=C1SC2OC(=O)OC2S1 (stereo not shown) [Compound 89]",
    "unit.of.measurement": "Karmen units",
    "p-GPT": 26.3
  },
  {
    "molecule": "CCCCOC(=O)C(C(C)=O)=C1SC2OC(=O)OC2S1 (stereo not shown) [Compound 91]",
    "unit.of.measurement": "Karmen units",
    "p-GPT": 27.9
  },
  {
    "molecule": "CCCOC(=O)C(C(=O)OCCC)=C1SC(OC(C)=O)C(OC(C)=O)S1 (stereo not shown) [Compound 59]",
    "unit.of.measurement": "Karmen units",
    "p-GPT": 40.9
  }
]

Could you share which p-GPT value was measured for CCC(C)OC(=O)C(C(=O)OC(C)CC)=C1SC2OC(=O)OC2S1 (stereo not shown) [Compound 78] ?
96.0

Repeat for the following molecule: C#CCOC(=O)C(C(C)=O)=C1SC(O)C(O)S1 (stereo not shown) [Compound 46]
16

Repeat for the following molecule: CCCCC(=O)C(C(=O)OCC)=C1SC2OC(=O)OC2S1 (stereo not shown) [Compound 103]
14.7

----------
p-GPT values for the compounds below.
- Test system: liver damage induced by carbon tetrachloride
- assay.text: Protective (Controlling) effect on liver damage induced by carbon tetrachloride
- Assay type: in vivo, mice (dd strain)
- assay.context: 250 mg/kg p.o., CCl4 0.05 ml/kg after 6 h, 24 h; CCl4 alone >2,100
Returns: string containing the number followed by the unit.

[
  {
    "compound": "COC(=O)C(C(=O)OC)=C1SC(OC(=O)CCC(=O)O)C(OC(=O)CCC(=O)O)S1 (stereo not shown)",
    "target.entity": "liver damage induced by carbon tetrachloride",
    "measured.property": "p-GPT",
    "observed.measurement": "121.0 Karmen units"
  },
  {
    "compound": "CC(C)COC(=O)C(C(=O)OCC(C)C)=C1SC2OC(=S)OC2S1 (stereo not shown)",
    "target.entity": "liver damage induced by carbon tetrachloride",
    "measured.property": "p-GPT",
    "observed.measurement": "554.7 Karmen units"
  },
  {
    "compound": "CC(C)CCOC(=O)C(C(=O)OCCC(C)C)=C1SC2OC(=O)OC2S1 (stereo not shown)",
    "target.entity": "liver damage induced by carbon tetrachloride",
    "measured.property": "p-GPT",
    "observed.measurement": "108.1 Karmen units"
  },
  {
    "compound": "CC(C)COC(=O)C(C#N)=C1SC(O)C(O)S1 (stereo not shown)",
    "target.entity": "liver damage induced by carbon tetrachloride",
    "measured.property": "p-GPT",
    "observed.measurement": "175 Karmen units"
  },
  {
    "compound": "C=CCOC(=O)C(C(C)=O)=C1SC(O)C(O)S1 (stereo not shown)",
    "target.entity": "liver damage induced by carbon tetrachloride",
    "measured.property": "p-GPT",
    "observed.measurement": "13 Karmen units"
  }
]

Could you share which p-GPT value was measured for COC(=O)C(C#N)=C1SC(O)C(O)S1 (stereo not shown) ?
152 Karmen units

Repeat for the following compound: CC(=O)C(C(=O)OC(C)(C)C)=C1SC(O)C(O)S1 (stereo not shown)
105 Karmen units

Repeat for the following compound: CCOC(=O)C(C(=O)C(C)C)=C1SC(O)C(O)S1 (stereo not shown)
172 Karmen units

Repeat for the following compound: CCOC(=O)C(C(=O)C(C)C)=C1SC2OC(=O)OC2S1 (stereo not shown)
48.5 Karmen units

Repeat for the following compound: CC(C)(C)OC(=O)C(C(=O)OC(C)(C)C)=C1SC2OC(=O)OC2S1 (stereo not shown)
66.0 Karmen units

Data origin: patent US4535075A
